target: FLT3 (Y591_V592 ins VDFREYEYD) (Homo sapiens, UniProt P36888, INS591VDFREYEYD); assay: Reaction Biology Kinase HotSpot radiometric kinase assay
endpoint.label: IC50 (nM)
Numbers only here, please. The scale is nM.

Request: Which measured IC50 value corresponds to CCN1CCN(Cc2cc(C(=O)Nc3ccc4[nH]c(-c5ccc6cn[nH]c6c5)nc4c3)cc(C(F)(F)F)c2)CC1 [8r] ?
Response: 49.5

---

biological target: FLT3 wild type (Homo sapiens, UniProt P36888); construct: purchased Reaction Biology Corp. (Kinase HotSpot service); experiment: Reaction Biology Kinase HotSpot radiometric kinase assay; assay type: biochemical; settings: ATP 10 µM; read-out: FLT3 IC50
endpoint.label: pIC50
// scale note: pIC50 = -log10(conc_M); give the bare number

Worked examples, 5 molecules total:
INSERT INTO measurements (molecule, quantitative_result) VALUES
  ('CC(C)(C)c1cc(C(=O)Nc2ccc3[nH]c(-c4ccc5cn[nH]c5c4)nc3c2)no1', 6.15),
  ('CCN(CC)C1CCN(c2cc(C(=O)Nc3ccc4[nH]c(-c5ccc6cn[nH]c6c5)nc4c3)cc(C(F)(F)F)c2)C1 (stereo not drawn)', 6.08),
  ('O=C(Nc1ccc2[nH]c(-c3ccc4cn[nH]c4c3)nc2c1)c1ccc(N2CCOCC2)c(C(F)(F)F)c1', 5.60),
  ('O=C(Nc1ccc(Cl)c(Cl)c1)Nc1ccc2[nH]c(-c3ccc4cn[nH]c4c3)nc2c1', 5.45),
  ('CN1CCC(Nc2cc(C(=O)Nc3ccc4[nH]c(-c5ccc6cn[nH]c6c5)nc4c3)cc(C(F)(F)F)c2)CC1', 6.80);

Request: May I ask what pIC50 has been recorded for `Cc1nccn1-c1cc(C(=O)Nc2ccc3[nH]c(-c4ccc5cn[nH]c5c4)nc3c2)cc(C(F)(F)F)c1` ?
Response: 6.33

Request: Can you check `O=C(Nc1ccc2[nH]c(-c3ccc4cn[nH]c4c3)nc2c1)c1cc(N2CCOCC2)cc(C(F)(F)F)c1` next?
Response: 5.99

Request: Next entry: `CN1CCN(c2ccc(C(=O)Nc3ccc4[nH]c(-c5ccc6cn[nH]c6c5)nc4c3)cc2C(F)(F)F)CC1`
Response: 6.81

Request: What do you get for `CCN1CCN(Cc2cc(C(=O)Nc3ccc4[nH]c(-c5ccc6cn[nH]c6c5)nc4c3)cc(C(F)(F)F)c2)CC1(C)C` ?
Response: 6.84

Request: `CN1CCC(Oc2ccc(C(=O)Nc3ccc4[nH]c(-c5ccc6cn[nH]c6c5)nc4c3)cc2C(F)(F)F)CC1`
Response: 6.13

Request: Another molecule to look at: `CCN1CCN(Cc2ccc(C(=O)Nc3ccc4[nH]c(-c5ccc6cn[nH]c6c5)nc4c3)cc2C(F)(F)F)CC1`
Response: 6.54

Request: `O=C(Nc1ccc2[nH]c(-c3ccc4cn[nH]c4c3)nc2c1)c1cnn(-c2ccccc2)c1C(F)(F)F` , same question.
Response: 5.96

Request: Consider next the molecule `O=C(Nc1ccc2[nH]c(-c3ccc4cn[nH]c4c3)nc2c1)c1cc(CN2CCN(C3CC3)CC2)cc(C(F)(F)F)c1` in the same way.
Response: 6.28

Request: Next entry: `CCN1CCN(c2cc(C(=O)Nc3ccc4[nH]c(-c5ccc6cn[nH]c6c5)nc4c3)cc(C(F)(F)F)c2)CC1(C)C`
Response: 7.18

Request: Also check CN(C)C1CCN(c2cc(C(=O)Nc3ccc4[nH]c(-c5ccc6cn[nH]c6c5)nc4c3)cc(C(F)(F)F)c2)C1 (stereo not drawn)
Response: 6.54

---

biological target: ABL1 (Homo sapiens); construct: purchased Reaction Biology Corp. (Kinase HotSpot service); assay: Reaction Biology Kinase HotSpot kinase assay; format: biochemical
Sequence (P00519 whole entry): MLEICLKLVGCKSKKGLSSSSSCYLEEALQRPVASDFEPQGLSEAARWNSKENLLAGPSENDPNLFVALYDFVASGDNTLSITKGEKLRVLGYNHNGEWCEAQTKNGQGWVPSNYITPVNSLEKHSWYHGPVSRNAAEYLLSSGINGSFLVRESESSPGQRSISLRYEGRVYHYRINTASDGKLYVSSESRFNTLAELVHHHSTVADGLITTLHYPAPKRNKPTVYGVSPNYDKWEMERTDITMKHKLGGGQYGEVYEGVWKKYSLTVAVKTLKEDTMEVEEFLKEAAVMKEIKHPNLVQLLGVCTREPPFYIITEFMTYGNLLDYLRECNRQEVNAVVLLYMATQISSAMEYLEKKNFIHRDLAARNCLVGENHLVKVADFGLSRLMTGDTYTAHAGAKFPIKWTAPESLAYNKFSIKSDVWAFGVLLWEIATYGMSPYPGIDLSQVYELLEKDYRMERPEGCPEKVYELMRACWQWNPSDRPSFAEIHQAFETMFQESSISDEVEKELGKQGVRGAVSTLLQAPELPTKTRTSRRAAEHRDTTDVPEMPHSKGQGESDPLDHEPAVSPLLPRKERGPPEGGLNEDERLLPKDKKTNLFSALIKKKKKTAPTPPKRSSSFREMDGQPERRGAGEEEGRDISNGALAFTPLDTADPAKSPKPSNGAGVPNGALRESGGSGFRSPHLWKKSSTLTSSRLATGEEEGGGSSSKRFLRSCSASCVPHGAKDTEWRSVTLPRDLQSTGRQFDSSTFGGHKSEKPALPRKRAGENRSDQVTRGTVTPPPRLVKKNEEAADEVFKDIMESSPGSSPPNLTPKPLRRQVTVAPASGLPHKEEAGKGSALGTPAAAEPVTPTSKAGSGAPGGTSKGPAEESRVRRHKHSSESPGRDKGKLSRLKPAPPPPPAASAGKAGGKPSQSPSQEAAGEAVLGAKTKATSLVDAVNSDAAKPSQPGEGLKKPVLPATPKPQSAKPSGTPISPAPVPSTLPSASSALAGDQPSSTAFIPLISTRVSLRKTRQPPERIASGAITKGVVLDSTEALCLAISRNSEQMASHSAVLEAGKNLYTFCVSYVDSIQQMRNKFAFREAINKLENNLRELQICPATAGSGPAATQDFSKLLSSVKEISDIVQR
endpoint.label: pIC50
// returns pIC50 (minus log10 of molar concentration), number only

Request: Quick check: pIC50 of `CCN1CCN(Cc2cc(C(=O)Nc3ccc4[nH]c(-c5ccc6cn[nH]c6c5)nc4c3)cc(C(F)(F)F)c2)CC1` ?
Response: 5.51

---

target: TRKC (Homo sapiens, UniProt Q16288)
Sequence (Q16288 32-839): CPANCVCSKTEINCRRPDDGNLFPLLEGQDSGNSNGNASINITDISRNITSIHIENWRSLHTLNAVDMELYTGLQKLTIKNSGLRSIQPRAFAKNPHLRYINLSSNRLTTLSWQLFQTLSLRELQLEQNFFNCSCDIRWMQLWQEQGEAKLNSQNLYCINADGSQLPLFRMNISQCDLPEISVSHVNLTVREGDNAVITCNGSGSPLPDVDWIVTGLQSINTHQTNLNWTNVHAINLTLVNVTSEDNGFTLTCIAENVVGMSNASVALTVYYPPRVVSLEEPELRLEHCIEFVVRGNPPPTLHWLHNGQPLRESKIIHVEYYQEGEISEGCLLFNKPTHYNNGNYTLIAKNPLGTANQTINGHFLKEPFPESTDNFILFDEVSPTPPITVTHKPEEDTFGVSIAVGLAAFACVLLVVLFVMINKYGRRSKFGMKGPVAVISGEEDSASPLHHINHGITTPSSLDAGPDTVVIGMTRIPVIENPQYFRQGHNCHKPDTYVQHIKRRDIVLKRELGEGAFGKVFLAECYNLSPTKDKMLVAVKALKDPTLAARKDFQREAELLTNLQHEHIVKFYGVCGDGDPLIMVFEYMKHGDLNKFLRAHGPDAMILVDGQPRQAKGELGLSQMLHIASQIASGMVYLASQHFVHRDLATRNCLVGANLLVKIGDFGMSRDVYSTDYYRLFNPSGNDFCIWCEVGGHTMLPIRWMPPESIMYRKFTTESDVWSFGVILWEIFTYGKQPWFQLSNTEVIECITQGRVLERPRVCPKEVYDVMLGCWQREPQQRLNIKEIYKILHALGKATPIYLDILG
endpoint.label: pIC50
The value called pIC50 is obtained by taking minus log10 of the concentration in mol/L.

Request: Which measured pIC50 belongs to `CCN1CCN(Cc2cc(C(=O)Nc3ccc4[nH]c(-c5ccc6cn[nH]c6c5)nc4c3)cc(C(F)(F)F)c2)CC1` , tested on TRKC (Homo sapiens, UniProt Q16288)?
Response: 5.82

---

biological target: FLT3 (D835Y) (Homo sapiens, UniProt P36888, D835Y); test: Reaction Biology Kinase HotSpot radiometric kinase assay
endpoint.label: IC50 (nM)
Just the number please, in nM, no unit attached.

// below: answered molecules
INSERT INTO measurements (molecule, assayed_target, endpoint_label, quantitative_result) VALUES
  ('CCN(CC)C1CCN(c2cc(C(=O)Nc3ccc4[nH]c(-c5ccc6cn[nH]c6c5)nc4c3)cc(C(F)(F)F)c2)C1 (stereo not shown)', 'FLT3 (D835Y) (Homo sapiens, UniProt P36888, D835Y)', 'IC50', 120),
  ('Cc1nccn1-c1cc(C(=O)Nc2ccc3[nH]c(-c4ccc5cn[nH]c5c4)nc3c2)cc(C(F)(F)F)c1', 'FLT3 (D835Y) (Homo sapiens, UniProt P36888, D835Y)', 'IC50', 108),
  ('CN1CCC(Oc2cc(C(=O)Nc3ccc4[nH]c(-c5ccc6cn[nH]c6c5)nc4c3)cc(C(F)(F)F)c2)CC1', 'FLT3 (D835Y) (Homo sapiens, UniProt P36888, D835Y)', 'IC50', 55),
  ('CCN1CCN(Cc2cc(C(=O)Nc3ccc4[nH]c(-c5ccc6cn[nH]c6c5)nc4c3)cc(C(F)(F)F)c2)CC1(C)C', 'FLT3 (D835Y) (Homo sapiens, UniProt P36888, D835Y)', 'IC50', 42),
  ('O=C(Nc1ccc2[nH]c(-c3ccc4cn[nH]c4c3)nc2c1)c1cnn(-c2ccccc2)c1C(F)(F)F', 'FLT3 (D835Y) (Homo sapiens, UniProt P36888, D835Y)', 'IC50', 63),
  ('O=C(Nc1ccc2[nH]c(-c3ccc4cn[nH]c4c3)nc2c1)c1ccc(Cl)c(Cl)c1', 'FLT3 (D835Y) (Homo sapiens, UniProt P36888, D835Y)', 'IC50', 103),
  ('O=C(Nc1ccc2[nH]c(-c3ccc4cn[nH]c4c3)nc2c1)c1cc(CN2CCN(C3CC3)CC2)cc(C(F)(F)F)c1', 'FLT3 (D835Y) (Homo sapiens, UniProt P36888, D835Y)', 'IC50', 174),
  ('CN(C)C1CCN(c2cc(C(=O)Nc3ccc4[nH]c(-c5ccc6cn[nH]c6c5)nc4c3)cc(C(F)(F)F)c2)C1 (stereo not shown)', 'FLT3 (D835Y) (Homo sapiens, UniProt P36888, D835Y)', 'IC50', 113),
  ('CCN1CCC(Nc2cc(C(=O)Nc3ccc4[nH]c(-c5ccc6cn[nH]c6c5)nc4c3)cc(C(F)(F)F)c2)CC1', 'FLT3 (D835Y) (Homo sapiens, UniProt P36888, D835Y)', 'IC50', 87),
  ('CCN1CCN(c2cc(C(=O)Nc3ccc4[nH]c(-c5ccc6cn[nH]c6c5)nc4c3)cc(C(F)(F)F)c2)CC1(C)C', 'FLT3 (D835Y) (Homo sapiens, UniProt P36888, D835Y)', 'IC50', 46);

Request: Item `O=C(Nc1ccc2[nH]c(-c3ccc4cn[nH]c4c3)nc2c1)c1cc(N2CCOCC2)cc(C(F)(F)F)c1` has what recorded IC50?
Response: 151

Request: Moving on to `O=C(Nc1ccc2[nH]c(-c3ccc4cn[nH]c4c3)nc2c1)c1cc(N2CCN(C3CC3)CC2)cc(C(F)(F)F)c1`
Response: 131

Request: Try `CN1CCC(Nc2cc(C(=O)Nc3ccc4[nH]c(-c5ccc6cn[nH]c6c5)nc4c3)cc(C(F)(F)F)c2)CC1` next.
Response: 25

Request: Then this molecule: `O=C(Nc1ccc2[nH]c(-c3ccc4cn[nH]c4c3)nc2c1)c1ccc(Cl)c(C(F)(F)F)c1`
Response: 84

Request: And then `Cc1cn(-c2cc(C(=O)Nc3ccc4[nH]c(-c5ccc6cn[nH]c6c5)nc4c3)cc(C(F)(F)F)c2)cn1` , what is it?
Response: 110

Request: Quick one: `CN1CCN(c2cc(C(=O)Nc3ccc4[nH]c(-c5ccc6cn[nH]c6c5)nc4c3)cc(C(F)(F)F)c2)CC1`
Response: 21

---

target: CAMKK1 (Homo sapiens)
Sequence (Q8N5S9 whole entry): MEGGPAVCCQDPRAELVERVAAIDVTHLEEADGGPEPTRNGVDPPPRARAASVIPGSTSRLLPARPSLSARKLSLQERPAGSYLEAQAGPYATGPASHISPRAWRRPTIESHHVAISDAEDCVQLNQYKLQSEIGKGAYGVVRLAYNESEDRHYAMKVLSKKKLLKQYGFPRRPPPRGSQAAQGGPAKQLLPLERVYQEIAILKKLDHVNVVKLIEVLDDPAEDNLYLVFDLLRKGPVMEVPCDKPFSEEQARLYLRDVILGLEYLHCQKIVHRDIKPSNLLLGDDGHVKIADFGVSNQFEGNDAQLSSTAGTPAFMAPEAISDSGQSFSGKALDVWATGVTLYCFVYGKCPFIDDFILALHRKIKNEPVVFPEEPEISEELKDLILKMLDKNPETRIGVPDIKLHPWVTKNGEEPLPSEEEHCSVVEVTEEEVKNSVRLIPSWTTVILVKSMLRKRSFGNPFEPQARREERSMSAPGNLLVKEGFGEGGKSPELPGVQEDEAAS
endpoint.label: pIC50
The scale used: pIC50 is minus the common logarithm of the concentration in molar units.

Request: // query pIC50 value for entry CCN1CCN(Cc2cc(C(=O)Nc3ccc4[nH]c(-c5ccc6cn[nH]c6c5)nc4c3)cc(C(F)(F)F)c2)CC1 [8r]
Response: 6.40
